- method_notes: A549 lung cancer cell viability effects, profiling panel, resazurin fluorescence, 24 h, PK04 Diversity Set (AID 1171); also: test concentration not given here
- experimental_conditions: higher = more signal, called active from +8 up or from −8 down
// map z-score onto a label; ranges b0 (below -0.9), b1 (-0.9 to below 0.3), b2 (0.3 or more)

COCCCNC(=O)[C@@]1(c2ccc([N+](=O)[O-])cc2)CC(=O)N(CC23CC4CC(CC(C4)C2)C3)[C@@H]1c1ccc(CO)cc1; b0
CCN(CC)c1ccc(N2CC=CC34O[C@@H]5C=CCCOC(=O)C5[C@H]3C(=O)N(CCCCCO)[C@@H]4C2=O)cc1 (stereo not given in full); b2
CCOC(=O)C[C@H]1[C@H](OC(=O)c2ccc(-c3ccccc3)cc2)[C@@H](NC(=O)Cc2ccc(OC)cc2)c2cc(OCCCO)ccc2N1C(=O)c1ccc2ccccc2n1; b2
COCCOC(=O)N1C(=O)[C@@]2(c3cc(C#CC4=CCCCC4)ccc31)[C@H](C(=O)N1CCc3cc(OC)c(OC)cc3C1)[C@H]1C(=O)O[C@H](c3ccccc3)[C@H](c3ccccc3)N1[C@@H]2c1ccccc1OCCO; b1
[N-]=[N+]=NCc1ccccc1C[C@@]1(C(=O)N2CCOCC2)N=C(c2ccc(OCCCO)cc2)O[C@@H]1c1ccccc1CN=[N+]=[N-]; b0

## Task Sort COCCOC(=O)N1C(=O)[C@@]2(c3cc(C#CC4=CCCCC4)ccc31)[C@H](C(=O)NC[C@H](O)c1ccccc1)[C@H]1C(=O)O[C@H](c3ccccc3)[C@H](c3ccccc3)N1[C@@H]2c1ccc(O)cc1 into one of the categories.
## Result b0

## Task Sort O=C1C2C=CC(C(O)c3ccc(F)cc3)N(Nc3ccccc3)C2C(=O)N1c1ccccc1 (stereo not given) into one of the categories.
## Result b1

## Task Sort COC(=O)C[C@@H]1C[C@H](C)[C@]2(O1)C(=O)N(Cc1ccccc1)c1ccc(NC(C)=O)cc12 into one of the categories.
## Result b0

## Task Sort C=CCOC(=O)[C@@H]1[C@H]2C(=O)O[C@H](c3ccccc3)[C@H](c3ccccc3)N2[C@H](c2ccc(OCCOC(=O)[C@@H]3C[C@@H]4C(=O)NCC(=O)N4[C@@H]3c3cccc(OCCO)c3)cc2)[C@@]12C(=O)Nc1ccc(I)cc12 into one of the categories.
## Result b1

## Task Sort CC(C)C[C@@H]1NC(=O)[C@H]2C[C@@H](C(=O)NCCCCCCNC(=O)CS)[C@@H](c3cccc(OCCO)c3)N2C1=O into one of the categories.
## Result b1

Cited source: PubChem BioAssay
